target: β1-40 amyloid fibrils (Homo sapiens); construct: Aggregated β1-40 peptides (Bachem, Torrance, Calif); purchased Bachem, Torrance, Calif; experiment: Competitive displacement of labeled complexes 3 or 6 from β1-40 fibrils; format: binding; settings: [Tc(CNtBu)4 (bpcr)]^+ (3) as labeled ligand; 25° C., pH 7.4; mean (±S.D.); read-out: Inhibition constant (Ki) for β1-40 fibrils
Ki values, listed per item
Use µM as the unit, but write only the number.

INSERT INTO results (given_smiles, measured_number) VALUES
  ('Nc1c(N=Nc2ccc(-c3ccc(N=Nc4cc(S(=O)(=O)O)c5ccccc5c4N)cn3)nc2)cc(S(=O)(=O)O)c2ccccc12', 0.51);

Now look at this entry.
Item: O=C(O)c1cc(N=Nc2ccc(-c3ccc(N=Nc4ccc(O)c(C(=O)O)c4)cn3)nc2)ccc1O | Ki: 0.76

* * *

target: β1-40 amyloid fibrils (Homo sapiens, UniProt P05067); construct: Aggregated β1-40 peptides (Bachem, Torrance, Calif); purchased Bachem, Torrance, Calif; experiment: Competitive displacement of labeled complexes 3 or 6 from β1-40 fibrils; format: binding; conditions: Inhibition constant (Ki) for β1-40 fibrils, [Tc(CNtBu)4 (bpcr)]^+ (3) as labeled ligand; 25° C., pH 7.4; mean (±S.D.)
Sequence (P05067 672-711 limits assumed): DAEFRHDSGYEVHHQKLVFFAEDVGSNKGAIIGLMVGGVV
endpoint-label: pKi
The value called pKi is obtained by taking minus log10 of the concentration in mol/L.

Item: Nc1c(/N=N/c2ccc(-c3ccc(/N=N/c4cc(S(=O)(=O)O)c5ccccc5c4N)cc3)cc2)cc(S(=O)(=O)O)c2ccccc12 [Congo Red (1), Congo Red, reference compound] | pKi: 6.34

* * *

molecular target: β1-40 amyloid fibrils (Homo sapiens); construct: Aggregated β1-40 peptides (Bachem, Torrance, Calif); purchased Bachem, Torrance, Calif; assay: Competitive displacement of labeled complexes 3 or 6 from β1-40 fibrils; format: binding; conditions: [Tc(CNtBu)4 (bpcg)]^+ (6) as labeled ligand; 25° C., pH 7.4; mean (±S.D.); read-out: Inhibition constant (Ki) for β1-40 fibrils
endpoint-label: Ki
In your response, the unit should come after the numeric value.

INSERT INTO results (given_smiles, endpoint_label, result) VALUES
  ('Nc1c(N=Nc2ccc(-c3ccc(N=Nc4cc(S(=O)(=O)O)c5ccccc5c4N)cn3)nc2)cc(S(=O)(=O)O)c2ccccc12', 'Ki', '480 nM');

Now look at this entry.
// Ki (β1-40 amyloid fibrils (Homo sapiens)) for O=C(O)c1cc(N=Nc2ccc(-c3ccc(N=Nc4ccc(O)c(C(=O)O)c4)cn3)nc2)ccc1O = 420 nM

* * *

molecular target: β1-40 amyloid fibrils (Homo sapiens); construct: Aggregated β1-40 peptides (Bachem, Torrance, Calif); purchased Bachem, Torrance, Calif; assay: Competitive displacement of labeled complexes 3 or 6 from β1-40 fibrils; format: binding; details: Inhibition constant (Ki) for β1-40 fibrils, [Tc(CNtBu)4 (bpcg)]^+ (6) as labeled ligand; 25° C., pH 7.4; mean (±S.D.)
endpoint-label: pKi
The value called pKi is obtained by taking minus log10 of the concentration in mol/L.

Item: Nc1c(/N=N/c2ccc(-c3ccc(/N=N/c4cc(S(=O)(=O)O)c5ccccc5c4N)cc3)cc2)cc(S(=O)(=O)O)c2ccccc12 [Congo Red (1), Congo Red, reference compound] | pKi: 6.25
